measured_on: T1, human GIP receptor (human, UniProt P48546 22-466)
T1 sequence (looked up): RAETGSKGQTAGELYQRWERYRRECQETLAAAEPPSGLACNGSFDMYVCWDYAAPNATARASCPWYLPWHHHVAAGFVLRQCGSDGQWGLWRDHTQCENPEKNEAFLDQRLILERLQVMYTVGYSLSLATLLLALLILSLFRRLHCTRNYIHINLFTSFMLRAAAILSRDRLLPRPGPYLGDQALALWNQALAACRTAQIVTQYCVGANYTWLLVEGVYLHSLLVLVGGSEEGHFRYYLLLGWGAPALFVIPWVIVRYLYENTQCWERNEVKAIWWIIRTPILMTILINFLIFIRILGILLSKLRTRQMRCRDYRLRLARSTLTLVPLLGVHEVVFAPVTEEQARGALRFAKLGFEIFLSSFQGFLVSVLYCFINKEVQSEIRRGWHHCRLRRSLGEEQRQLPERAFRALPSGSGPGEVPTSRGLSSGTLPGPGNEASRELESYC
protocol_text: cell-based or functional assay
Bridges are numbered along the chain shown (N, C = ends). Where no end group is shown, it is not given here. [ ]: non-standard residue; d: D form. The star is where a group is joined. Acetyl(2-(4-imidazolyl)) = O=C(Cc1c[nH]cn1)*; Aib = CC(C)(N)C(=O)O
experimental_readout: in vitro Activity Compared to Native Peptide (%), vs GIP
Please give a number only; it is taken to be in %.

// worked examples, in vitro Activity Compared to Native Peptide (%), vs GIP included
INSERT INTO measurements (binder, unit_string, value_measured) VALUES
  ('H[Aib]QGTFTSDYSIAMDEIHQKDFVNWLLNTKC (bridge 16-20; not fully specified (C-terminus)) [triple agonist of SEQ ID NO: 35]', '%', 1.3),
  ('H[Aib]QGTFTSDYSKYLDEKACKDFVQWLLDGGPSSGAPPPS (bridge 16-20; not fully specified (C-terminus)) [triple agonist of SEQ ID NO: 32]', '%', 8.8),
  ('[Acetyl(2-(4-imidazolyl))][Aib]QGTFTSDYSICMDEIHQKDFVNWLLNTK (bridge 16-20; not fully specified (C-terminus)) [triple agonist of SEQ ID NO: 49]', '%', 3.3);

Please fill in: in vitro Activity Compared to Native Peptide (%), vs GIP reported for Y[Aib]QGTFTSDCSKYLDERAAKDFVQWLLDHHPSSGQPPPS (bridge 16-20; not fully specified (C-terminus)) [triple agonist of SEQ ID NO: 72] = 1.6

Please fill in: in vitro Activity Compared to Native Peptide (%), vs GIP reported for H[Aib]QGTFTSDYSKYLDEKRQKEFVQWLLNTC (bridge 16-20; not fully specified (C-terminus)) [triple agonist of SEQ ID NO: 51] = 0.1

Please fill in: in vitro Activity Compared to Native Peptide (%), vs GIP reported for H[Aib]QGTFTSDYSKYLCEKRQKEFVQWLLNGGPSSGAPPPSG (bridge 16-20; not fully specified (C-terminus)) [triple agonist of SEQ ID NO: 36] = 0.2

Please fill in: in vitro Activity Compared to Native Peptide (%), vs GIP reported for Y[Aib]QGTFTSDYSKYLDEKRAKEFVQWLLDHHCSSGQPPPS-NH2 (bridge 16-20) [triple agonist of SEQ ID NO: 43] = 3.7

Please fill in: in vitro Activity Compared to Native Peptide (%), vs GIP reported for Y[Aib]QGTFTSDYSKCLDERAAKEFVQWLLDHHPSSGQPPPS (bridge 16-20; not fully specified (C-terminus)) [triple agonist of SEQ ID NO: 69] = 62.8
